This collection of values is drawn from ChEMBL document CHEMBL1201862.

I'd appreciate it if you could supply GI50 values for the items below.
- Tested on: HOP-92
- method-summary: NCI tumour cell line growth inhibition, 48 h
Active and inactive are the calls of the source. No stated cut-off is given here; in the data, active = GI50 up to about 1.1 µM and inactive = higher.

For orientation, consider the following solved cases.
Incoming: Give a short answer stating reported GI50 for COc1ccc(/C=C/C(=O)C(C)(C)Br)cc1 .
Outgoing: 11.8 µM (inactive)

Incoming: Give a short answer stating reported GI50 for COC(=O)CN1Cc2cc(C)cc(c2O)CN(CC(=O)OC)Cc2cc(C)cc(c2O)CN(CC(=O)OC)Cc2cc(C)cc(c2O)CN(CC(=O)OC)Cc2cc(C)cc(c2O)C1 .
Outgoing: > 50 µM (inactive)

Incoming: Give a short answer stating reported GI50 for CCN(CC)CCC(=O)c1ccc(Oc2ccc(C)cc2)cc1 .
Outgoing: 23.7 µM (inactive)

Incoming: Give a short answer stating reported GI50 for COc1ccccc1/[N+]([O-])=C/c1ccccc1OC(=S)S .
Outgoing: 19 µM (inactive)

Continue with the next molecule.
Incoming: Give a short answer stating reported GI50 for O=S(=O)(c1ccccc1)N1N=C2c3ccccc3CCC[C@H]2C1c1ccccc1 (stereo not given in full) .
Outgoing: > 100 µM (inactive)

----------
- Tested on: OVCAR-5
- method-summary: NCI tumour cell line growth inhibition, 48 h
Active and inactive are the calls of the source. Cut-off read from the data, not from the text of the source: active = GI50 up to about 1.1 µM and inactive = higher.
assay-readout: GI50

Incoming: Give a short answer stating reported GI50 for Clc1ccc(C[P+]2(c3ccccc3)CCCCC2)cc1.[O-][Cl+3]([O-])([O-])[O-] .
Outgoing: > 100 µM (inactive)

Incoming: Give a short answer stating reported GI50 for [O-][N+]1=[N+]([O-])[C@@H](c2ccccc2)[C@H]1c1ccccc1 .
Outgoing: 19.9 µM (inactive)

Incoming: Give a short answer stating reported GI50 for C[C@@H](c1ccccc1)N(CC#N)[C@H]1CCC[C@]1(O)/C=C/c1ccc2c(c1)OCO2 .
Outgoing: > 25 µM (inactive)

Batch lookup, GI50 per entry.
1. OC[C@@H](O)[C@H]1NC[C@@H](O)[C@H]1O
2. O=S(=O)(c1cccc(C(F)(F)F)c1)N1c2ccccc2-n2cccc2C1c1cccnc1 (stereo not drawn)
3. CN(C)CCNc1ncnc2nc(-c3ccccc3)c(-c3ccccc3)nc12
4. Cc1n[nH]c(=O)n1C1CC1

Outgoing:
["> 100 µM (inactive)", "> 50.5 µM (inactive)", "> 100 µM (inactive)", "> 100 µM (inactive)"]

Incoming: Give a short answer stating reported GI50 for Cc1ccnc2nc(-c3ccc(Cl)cc3)cc(O)c12 .
Outgoing: > 100 µM (inactive)

----------
- Test system: DU-145
- method-summary: NCI tumour cell line growth inhibition, 48 h
The source made the active and inactive calls. Rule as the data show it: active = GI50 up to about 1.1 µM and inactive = higher.
Choose the fitting class; nothing outside 1.0 = active, 0.0 = inactive is accepted.

Use these answered entries as a reference point.
Incoming: Fill in: this test's call for Cc1ccc(-n2cnc3c(N/N=C4\SCC(=O)N4c4ccccc4)ncnc32)cc1 is ___
Outgoing: 0.0

Incoming: Fill in: this test's call for Oc1ccc(O)c(Cc2ccccc2)c1 is ___
Outgoing: 0.0

Next:
Incoming: Fill in: this test's call for CC1=NN(C(=O)CC(=O)Nc2cccc(Cl)c2)C(=O)C1/N=N\c1ccc(S(=O)(=O)c2ccc(/N=N/C3C(=O)N(C(=O)CC(=O)Nc4cccc(Cl)c4)N=C3C)cc2)cc1 (stereo not given) is ___
Outgoing: 0.0

Incoming: Fill in: this test's call for Cc1n[nH]c(=O)n1C1CC1 is ___
Outgoing: 0.0

Incoming: Fill in: this test's call for COc1ccc2nc3ccccc3c(NCCCCN(CCCl)CCCl)c2c1 is ___
Outgoing: 1.0
